- Test system: SF-539 CNS
- Test: NCI tumour cell line growth inhibition, 48 h; in the data active = GI50 below about 0.43 µM; inactive = the rest
Classes to choose from: true for active, false for inactive

Tell me the assay call for CC(C)CCC[C@@H](C)[C@H]1CC[C@H]2[C@@H]3CC=C4C[C@@H](C(C(=O)O)C(=O)O)CC[C@]4(C)[C@H]3CC[C@]12C please.
true

# iterate: Cc1cc(I)cc(CN(C)CCCCN2CCCCC2)c1O
false

# iterate: COc1ccc2c(c1)/C(=C/c1c(C)nc3sc(C)nn13)C(=O)N2
false

# iterate: C=C(CN1CCN(c2ccc(Cl)cc2F)CC1)c1ccc(C(=O)Nc2ccccc2N)cc1
false

# iterate: COC(=O)[C@@H]1[C@H](O)[C@H](C)[C@H](O)[C@@](C)(O)/C=C\C=C(C)C(=O)Nc2c(C)c(OC(C)=O)c3c(c2O)C(=O)C(C)=C2OCOC(=C23)C(C)=C[C@@](C)(O)[C@H](O)[C@@H](C)[C@H]1OC(C)=O
false

# iterate: COc1ccc(-c2nc3sccn3c2/C(N)=N/C(=N)N)cc1OC
false

# iterate: COc1cc(/C=N/NC(=O)c2ccc(C(F)(F)F)nc2Nc2ccc(Cl)cc2C)ccc1O
false

# iterate: O=C([O-])CC(=O)[O-].O=C([O-])CC(=O)[O-].[K+].[Pd+2]
false

----------
- Test system: EKVX NSCLC
- Test: NCI tumour cell line growth inhibition, 48 h
Measurement kind: TGI

Requested read-out: TGI. Entry: Clc1ccc(/C=C/c2nc3ccccc3s2)cc1Cl
> 100 µM

# iterate: O=C1/C(=C/c2cccc([N+](=O)[O-])c2)COc2ccc(O)cc21
13.7 µM

# iterate: O=CN/C=C/c1cc(O)ccc1O
35.6 µM

# iterate: Clc1cc2nsnc2c(Cl)n1
> 100 µM

# iterate: O=[N+]([O-])/C(C(Cl)=C(Cl)Cl)=C(\SCc1ccccc1)N1CCCCC1
> 100 µM

# iterate: Cc1ccc2c(=O)cc(-c3ccc(F)cc3)[nH]c2n1
> 100 µM

# iterate: Cn1c2ccccc2c2c(Nc3ccccc3)c3ccccc3nc21
51.1 µM

# iterate: N.N.N.N.O=[N+]([O-])[O-].[Co+3].[N-]=[N+]=[N-].[N-]=[N+]=[N-]
> 100 µM

# iterate: CCOC(=O)CN1C(=O)c2cccc3cc([N+](=O)[O-])cc(c23)C1=O
28.6 µM

# iterate: CC1=C(C)[C@@]2(C)O[C@@]2(C)O[C@@]2(C)O[C@@]12C
> 100 µM

# iterate: Cc1cc(=O)[nH]c(NN2C(Cl)C(=O)C2c2ccccc2O)n1 (stereo not drawn)
> 75.1 µM

# iterate: CC(C)=CC(=O)C1c2cccc(O)c2C(=O)c2c(O)cc(C)cc21 (stereo not drawn)
31.5 µM

# iterate: COc1ccc(CNc2nc(NCc3ccc(OC)c(OC)c3)nc(NC3CCCCC3)n2)cc1
> 100 µM

# iterate: O=C(COc1ccc(Br)cc1Br)N1N=C(c2ccc([N+](=O)[O-])o2)CC1(O)c1ccccc1 (stereo not drawn)
9.59 µM

# iterate: O=S1(=O)c2ccccc2NC(c2ccc3ccccc3c2)CC1c1ccccc1F (stereo not drawn)
> 100 µM

# iterate: Brc1ccc(N=c2nc3ccccn3n3nc(-c4ccccc4)cc23)cc1
> 100 µM

# iterate: O=C1c2ccccc2C2C1N2C(=O)C(F)(F)F (stereo not drawn)
> 100 µM

# iterate: N#CC(c1ccc(Cl)cc1)c1cccc(C(C#N)c2ccc(Cl)cc2)n1 (stereo not drawn)
> 100 µM

From: PubChem BioAssay (NCI)
